Origin of measurements: patent US11325899B2

target: EP4 receptor (Homo sapiens, UniProt P35408); construct: BT549 breast cancer cells, express high endogenous EP4 levels and very low EP2 levels; experiment: hEP4 cAMP assay (BT549 breast cancer cells, HTRF cAMP, PGE2 stimulation); settings: antagonistic activity, PGE2 6 nM (EC80)
Sequence (P35408 whole entry): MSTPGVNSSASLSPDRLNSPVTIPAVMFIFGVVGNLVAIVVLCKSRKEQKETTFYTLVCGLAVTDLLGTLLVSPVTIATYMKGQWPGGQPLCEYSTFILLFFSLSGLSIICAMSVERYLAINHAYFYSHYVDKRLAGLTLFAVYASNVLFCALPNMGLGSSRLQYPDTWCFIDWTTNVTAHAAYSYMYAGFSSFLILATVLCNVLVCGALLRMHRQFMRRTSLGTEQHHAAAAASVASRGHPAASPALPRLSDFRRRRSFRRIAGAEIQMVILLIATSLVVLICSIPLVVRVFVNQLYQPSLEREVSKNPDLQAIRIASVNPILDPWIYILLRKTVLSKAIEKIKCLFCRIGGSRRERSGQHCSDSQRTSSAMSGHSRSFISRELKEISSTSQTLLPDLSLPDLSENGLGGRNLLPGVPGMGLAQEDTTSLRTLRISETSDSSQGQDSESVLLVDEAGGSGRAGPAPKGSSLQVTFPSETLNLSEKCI
pIC50: −log10 of the molar value.
quantity: pIC50

Some solved entries appear below for comparison.
compound | measured result
CCOc1cc(-c2cc(NCCc3c(Cl)sc4ccccc34)ncn2)ccc1C(=O)O [Example 75] | 5.94
CSc1cc(-c2cc(NCCc3c(C)sc4c(C)cccc34)ncn2)ccc1C(=O)O [Example 14] | 6.98
CCCSc1cc(-c2cc(NCCc3c(C)sc4c(C)cccc34)ncn2)ccc1C(=O)O [Example 87] | 6.35

1. CCOc1cc(-c2cc(NCCc3c(C#N)sc4c(OC)cccc34)ncn2)ccc1C(=O)O [Example 54]
2. CCOc1cc(-c2cc(NCCc3c(C)oc4c(C)cc(F)cc34)ncn2)ccc1C(=O)O [Example 69]
3. Cc1cc(-c2cc(NCCc3c(C)oc4c(C)cc(Cl)cc34)ncn2)sc1C(=O)O [Example 4]
4. CCOc1cc(-c2cc(NCCc3c(C)sc4c(C)cc(F)cc34)ncn2)ccc1NCC(=O)O [Example 128]
IN: // sort entries: pIC50, high to low Arrange the labels as the request states and list them.
OUT: 1, 4, 3, 2
